# Tested on: SF-295 CNS
# ASSAY_METHOD_TEXT: NCI-60 one-dose screen, 48 h (100 = growth as untreated, 0 = no growth, -100 = all killed)
# CONDITION_INFO: 10 µM unless noted
Compounds without any hit were thinned out: in the full panel of roughly 83,000, 20% have a hit. Activity calls are given as the source filed them. The calls were made as follows: active = growth percent below 10; inactive = the rest.

COMPOUND: C1=CC2=CC=C3C=CC=C4C(c5nc6c7ccccc7c7ccccc7c6[nH]5)=CC(=C1)C2C34 (stereo not drawn)
growth: 113% (inactive)

COMPOUND: CCOC(=O)c1c(-c2ccc(O)cc2)c(C#N)c2c(C#N)c(N)nn2c1N
growth: 79.9% (inactive)

COMPOUND: Nc1cc(N)c(S(=O)(=O)O)cc1N=Nc1cc([N+](=O)[O-])ccc1O
growth: 107% (inactive)

COMPOUND: NC[C@@H]1CCN(c2cc3c(cc2F)c(=O)n(N)c(=O)n3Cc2ccc(-c3ccccc3)cc2)C1
growth: 96.5% (inactive)

COMPOUND: Cc1c(Cl)cccc1NC(=O)c1sc2nc3c(cc2c1N)CCCCCC3
growth: 24.6% (inactive)

COMPOUND: COc1ccccc1N1CCN(CCCOc2ccc(C(=O)/C=C3/C(=O)Nc4ccccc43)cc2)CC1
growth: 71.1% (inactive)

COMPOUND: c1cc(CNC23CC4CC(CC(C4)C2)C3)cc(C[N+](Cc2cccc(CNC34CC5CC(CC(C5)C3)C4)c2)(Cc2cccc(CNC34CC5CC(CC(C5)C3)C4)c2)Cc2cccc(CNC34CC5CC(CC(C5)C3)C4)c2)c1 (stereo not drawn)
growth: 54.4% [42 µM] (inactive)

COMPOUND: C=C1C(=O)O[C@H]2[C@H]1CC/C(COC(=O)N1CCC[C@H]1C(=O)Nc1ccc(OC)c(C(N)=O)c1O)=C\CC[C@@]1(C)O[C@@H]21
growth: 90.1% (inactive)
